target: CDK2/Cyclin E1(14-475) (Homo sapiens, UniProt P24941); test: Caliper LabChip EZ Reader mobility shift assay, inhibition of CDK2/Cyclin E1 activity; type: biochemical; settings: class symbols A-D
reported.metric: IC50

Tell me IC50 of CNC(=O)[C@H](CCCc1ccccc1)NC(=O)C1CN(C(=O)Cc2ccccc2)CC2CN(C(=O)c3ccc(OC(C)C)c(OC)c3)CC21 (stereo partly drawn) when tested on CDK2/Cyclin E1(14-475) (Homo sapiens, UniProt P24941).
> 10 µM

Tell me IC50 of CNC(=O)[C@H](CCCc1ccccc1)NC(=O)C1CN(C(=O)Cc2c[nH]c3cc(Cl)ccc23)CC2CN(C(=O)c3ccc(OCC(C)C)cc3)CC21 (stereo partly drawn) when tested on CDK2/Cyclin E1(14-475) (Homo sapiens, UniProt P24941).
0.5 to 5 µM

Tell me IC50 of COc1cc(C(=O)N2CC3CN(C(=O)Cc4c[nH]c5cc(Cl)ccc45)CC(C(=O)N[C@H](C(=O)NCCCCCNC(=O)OC(C)(C)C)C(C)OCc4ccccc4)C3C2)ccc1OC(C)C (single isomer, unassigned) [I-260] when tested on CDK2/Cyclin E1(14-475) (Homo sapiens, UniProt P24941).
0.5 to 5 µM

Tell me IC50 of CNC(=O)[C@H](CCCC1CCCCC1)NC(=O)C1CN(C(=O)Cc2c[nH]c3cc(Cl)ccc23)CC2CN(C(=O)c3ccc(OC(C)C)c(OC)c3)CC21 (stereo partly drawn) when tested on CDK2/Cyclin E1(14-475) (Homo sapiens, UniProt P24941).
0.5 to 5 µM

Tell me IC50 of CNC(=O)[C@H](CCCc1ccccc1)NC(=O)C1CN(C(=O)c2ccc3nccnc3c2)CC2CN(C(=O)c3ccc(OC(C)C)c(OC)c3)CC21 (stereo partly drawn) when tested on CDK2/Cyclin E1(14-475) (Homo sapiens, UniProt P24941).
> 10 µM

Tell me IC50 of CNC(=O)[C@H](CCCc1ccccc1)NC(=O)C1CN(C(=O)C(C)(C)c2c[nH]c3ccccc23)CC2CN(C(=O)c3ccc(OC(C)C)c(OC)c3)CC21 (stereo partly drawn) when tested on CDK2/Cyclin E1(14-475) (Homo sapiens, UniProt P24941).
> 10 µM
